MEASURED_TARGET: T1, PH domain (1–115) of TFIIH p62 subunit (S. cerevisiae, UniProt P32776 1-115)
T1 construct: also called PH domain of p62; p62 PH domain; source: E. coli Rosetta 2(DE3), purified (Glutathione Sepharose, released by PreScission protease cleavage)
T1 sequence (looked up): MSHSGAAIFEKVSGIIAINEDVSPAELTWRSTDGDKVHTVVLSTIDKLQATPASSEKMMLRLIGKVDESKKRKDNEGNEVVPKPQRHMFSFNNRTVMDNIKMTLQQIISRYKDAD
MEASUREMENT_NOTES: BLI; Octet K2; GST-Elf1-CTD immobilised on GST-specific biosensors; PH domain of p62 at 30, 15, 7.5, 3.75 and 0 µM; 20 mM Tris-HCl pH 7.5, 5% glycerol, 1 mM DTT; association 2 min, dissociation 3 min
DETAILS: both partners purified
ENDPOINT_NAME: Kd (µM)
Give your result in µM as a bare value.

Which measured Kd value corresponds to GST-Elf1-CTD Y99A mutant (residues 85–145) (domain or fragment, S. cerevisiae, UniProt P36053 85-145, looked up, also called Y99A GST-Elf1-CTD; Y99A mutant CTD; source: E. coli Rosetta 2(DE3), purified (Glutathione Sepharose, Superdex 200)) GSDTDDGDEGSDSDAESDSEQDAKTQNDGEIDSDEEEVDSDEERIGQVKRGRGALVDSDDE ?
7.32

Next entry: GST-Elf1-CTD (residues 85–145) (domain or fragment, S. cerevisiae, UniProt P36053 85-145, looked up, also called WT CTD; Elf1 C-terminal domain; source: E. coli Rosetta 2(DE3), purified (Glutathione Sepharose, Superdex 200)) GSDTDDGDEGSDSDYESDSEQDAKTQNDGEIDSDEEEVDSDEERIGQVKRGRGALVDSDDE
3.82

Hello, the source for this data is paper PMC11266705, in case you need it.
